biological target: recombinant MERS-CoV S1 protein (MERS-CoV); test: SPR
measured metric: Kd (nM)
Expressed in nM, but write only the number.

binder	unit annotation	Kd
IgG1 m336-gL-FR (light-chain framework somatic mutations reverted to germline) (antibody, V domains shown) VH: QVQLVQSGAEVKKPGSSVKVSCKASGGTFSSYAISWVRQAPGQGLEWMGGIIPIFGTASYAQKFQGRVTITADKSTSTAYMELSSLRSEDTAVYYCARVGYCSSTSCNRGAFDIWGQGTMVTVSS VL: DIQMTQSPSSLSASVGDRVTITCRASQGIRNDLGWYQQKPGKAPKRLIYAASSLQSGVPSRFSGSGSGTEFTLTISSLQPEDFATYYCQQLNSYPLTFGGGTKVEIK	nM	15.7

Req: What value of measured Kd is listed for IgG1 m336 (antibody, V domains shown) VH: QVQLVQSGAEVKKPGSSVKVSCKASGGTFSSYAISWVRQAPGQGLEWMGGIIPIFGTASYAQKFQGRVTITADKSTSTAYMELSSLRSEDTAVYYCARVGYCSSTSCNRGAFDIWGQGTMVTVSS VL: DIQLTQSPSSLSASVGDRVTITCRASQGIRNDLGWYQQKPGKAPKLLIYAASSLQSGVPSRFSGSGSGTDFTLTISSLQPEDFATYYCQQLNSYPLTFGGGTKVEIK ?
Resp: 1.49

Req: Another binder to look at: IgG1 m336-gH (heavy-chain somatic mutation reverted to germline) (antibody, V domains shown) VH: QVQLVQSGAEVKKPGSSVKVSCKASGGTFSSYAISWVRQAPGQGLEWMGGIIPIFGTANYAQKFQGRVTITADKSTSTAYMELSSLRSEDTAVYYCARVGYCSSTSCNRGAFDIWGQGTMVTVSS VL: DIQLTQSPSSLSASVGDRVTITCRASQGIRNDLGWYQQKPGKAPKLLIYAASSLQSGVPSRFSGSGSGTDFTLTISSLQPEDFATYYCQQLNSYPLTFGGGTKVEIK
Resp: 0.239
